Target: T1, FBF-2 RBD + CT L610A (C. elegans, UniProt Q09312 164-632, L610A)
T1 construct: source: E. coli, expressed and purified like wild type proteins; not shown: His6-SUMO, N-terminal, cleaved
T1 sequence (looked up): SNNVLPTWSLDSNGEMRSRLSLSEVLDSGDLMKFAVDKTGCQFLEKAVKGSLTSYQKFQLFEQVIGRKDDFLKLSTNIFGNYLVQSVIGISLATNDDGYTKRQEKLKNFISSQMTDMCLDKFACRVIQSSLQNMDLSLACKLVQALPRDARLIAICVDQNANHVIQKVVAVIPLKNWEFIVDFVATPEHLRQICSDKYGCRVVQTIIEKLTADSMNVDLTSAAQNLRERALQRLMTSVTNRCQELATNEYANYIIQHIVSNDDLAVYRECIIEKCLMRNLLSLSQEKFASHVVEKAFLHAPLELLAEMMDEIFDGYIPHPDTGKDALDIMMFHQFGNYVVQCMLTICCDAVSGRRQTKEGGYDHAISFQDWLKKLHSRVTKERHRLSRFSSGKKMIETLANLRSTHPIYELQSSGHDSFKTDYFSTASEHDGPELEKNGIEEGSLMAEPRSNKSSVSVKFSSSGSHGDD
Assay: ITC; peptide (100–400 µM) titrated from the syringe into the cell containing FBF-2 (10–30 µM); 20 °C; 20 mM HEPES pH 7.4, 150 mM NaCl, 0.5 mM TCEP; no RNA; one-site model; mean of two replicates
Conditions: both partners purified
pKd: −log10 of the molar value.

binder	pKd
SSSPQQRSGLRSQKLHLTYIEKNKRVRAMIPQ (peptide, UniProt P91820 67-98, looked up, The tag was cleaved with Ulp1 protease; also called LST-1^67–98; source: E. coli, purified (Ni-NTA, heparin, Superdex 75); not shown: His6-SUMO, N-terminal, cleaved) [LST-1 B peptide (LST-1 residues 67-98)]	7.22
STIAYSKSQHEAPKQLLQLRSEIKPLIPLNQP (peptide, UniProt P91820 19-50, looked up, The tag was cleaved with Ulp1 protease; also called LST-1^19–50; source: E. coli, purified (Ni-NTA, HiTrap Q flow-through, Superdex 75); not shown: His6-SUMO, N-terminal, cleaved) [LST-1 A peptide (LST-1 residues 19-50)]	5.62
